Target: Human immunodeficiency virus type 1 reverse transcriptase (Human immunodeficiency virus 1, UniProt Q72547, Y181I)
Experiment: Inhibition of HIV1 reverse transcriptase p66 Y181I mutant associated RNA dependent DNA polymerase activity expressed in Escherichia coli assessed as reduction in [3H]dTTP incorporation using poly(rA)/oligo(dT) as template/primer by scintillation counting analysis
metric: IC50 (nM)
Express it in nM; write the number only.

Cc1cc(C)cc(S(=O)(=O)c2c(C(=O)N[C@@H](C)C(=O)N[C@H](C)c3ccncc3)[nH]c3ccc(Cl)cc23)c1: 1700
Cc1cc(C)cc(S(=O)(=O)c2c(C(=O)N[C@H](C)C(=O)NCc3ccco3)[nH]c3ccc(Cl)cc23)c1: 276
Cc1cc(C)cc(S(=O)(=O)c2c(C(=O)N[C@@H](C)C(=O)N[C@@H](C)c3ccncc3)[nH]c3ccc(Cl)cc23)c1: 440
Cc1cc(C)cc(S(=O)(=O)c2c(C(=O)NCC(=O)NCc3ccco3)[nH]c3ccc(Cl)cc23)c1: 461
Cc1cc(C)cc(S(=O)(=O)c2c(C(=O)N[C@H](C)C(=O)NCc3ccncn3)[nH]c3ccc(Cl)cc23)c1: 3350

Need IC50, item `Cc1cc(C)cc(S(=O)(=O)c2c(C(=O)NCC(=O)NCc3ccncn3)[nH]c3ccc(Cl)cc23)c1`
529

Need IC50, item `Cc1cc(C)cc(S(=O)(=O)c2c(C(=O)N[C@H](C)c3ccccc3F)[nH]c3ccc(Cl)cc23)c1`
456

Need IC50, item `Cc1cc(C)cc(S(=O)(=O)c2c(C(=O)N[C@H](C)C(=O)NCc3ccncc3)[nH]c3ccc(Cl)cc23)c1`
61000

---

Molecular target: Human immunodeficiency virus type 1 reverse transcriptase (Human immunodeficiency virus 1, UniProt Q72547, K103N)
Experiment: Inhibition of HIV1 reverse transcriptase p66 K103N mutant associated RNA dependent DNA polymerase activity expressed in Escherichia coli assessed as reduction in [3H]dTTP incorporation using poly(rA)/oligo(dT) as template/primer by scintillation counting analysis
# pIC50 annotations
Reminder that pIC50 means the negative base-10 logarithm of the concentration expressed in mol/L.

Consider the following illustrative entries.
Cc1cc(C)cc(S(=O)(=O)c2c(C(=O)N[C@@H](C)C(=O)NCc3ccco3)[nH]c3ccc(Cl)cc23)c1: 5.95
Cc1cc(C)cc(S(=O)(=O)c2c(C(=O)NCc3cccc(N)c3)[nH]c3ccc(Cl)cc23)c1: 7.18
Cc1cc(C)cc(S(=O)(=O)c2c(C(=O)NCC(=O)NCc3ccco3)[nH]c3ccc(Cl)cc23)c1: 6.27
Cc1cc(C)cc(S(=O)(=O)c2c(C(=O)N[C@H](C)C(=O)N[C@@H](C)c3ccncc3)[nH]c3ccc(Cl)cc23)c1: 5.45

Need pIC50, item `Cc1cc(C)cc(S(=O)(=O)c2c(C(=O)NCc3ccc4nc(N)[nH]c4c3)[nH]c3ccc(Cl)cc23)c1`
6.74

Need pIC50, item `Cc1cc(C)cc(S(=O)(=O)c2c(C(=O)N[C@H](C)C(=O)N[C@H](C)c3ccncc3)[nH]c3ccc(Cl)cc23)c1`
4.63

Need pIC50, item `Cc1cc(C)cc(S(=O)(=O)c2c(C(=O)NCC(=O)NCc3ccncn3)[nH]c3ccc(Cl)cc23)c1`
6.26

Need pIC50, item `Cc1cc(C)cc(S(=O)(=O)c2c(C(=O)N[C@@H](C)C(=O)NCc3ccncc3)[nH]c3ccc(Cl)cc23)c1`
6.38
